# target: Voltage-gated inwardly rectifying potassium channel KCNH2 (Homo sapiens)
# methodNotes: qHTS Assay for Small Molecule Inhibitors of the Human hERG Channel Activity (AID 588834);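 also: lower thallium flux fluorescence means stronger hERG block; nearly all actives have a fitted effect of over 50% in size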
# setupConditions: U2OS BacMam hERG, FluxOR thallium flux fluorescence; series mostly up to 46.1 µM
# Protocol: NIH Chemical Genomics Center [NCGC] National Institutes of Environmental Health Sciences [NIEHS] National Toxicology Program [NTP] We have developed a 1536-well cell-based assay for quantitative high throughput screening (qHTS) to determine in vitro hERG channel blockage as a measure of cardio toxicity with small molecules. […] 13. Read fluorescence Intensity on FDSS for 10 Sec with 1 sec interval […] 15. Read fluorescence Intensity on FDSS for 2 min with 1 sec interval […]
Inconclusive results are not listed. The source made the active and inactive calls. Calls follow the shape of the dose curve; as a rule, active = well fitted inhibition curve with a large enough effect; inconclusive = small, poorly fitted or top-dose-only effect; inactive = flat fitted curve, though single readings scatter.
// allowed return values: active, inactive

molecule	categoryLabel
O=c1[nH]c(=O)n([C@H]2C[C@H](O)[C@@H](CO)O2)cc1F	inactive
COc1ccc(/C=N/NC(=O)c2ccncc2)cc1OC	inactive
CC(CNC1CCCCC1)OC(=O)c1ccccc1 (configuration not stated)	inactive
CC(=O)Nc1ccc(OC(=O)c2ccccc2OC(C)=O)cc1	inactive

Query: Please let me know the test result on file for O=C1OC(CN2CCOCC2)CN1/N=C/c1ccc([N+](=O)[O-])o1 (configuration not stated) .
Response: inactive

Query: Name the outcome recorded for COc1ccc2c(c1)c1c3n2CCN(C)C3=NCC1 in the assay.
Response: active

* * *

# Tested on: UISO
# methodNotes: qHTS assay to identify novel small-molecules to repurpose for Merkel cell carcinoma treatment (AID 1296009); also: nearly all actives have a fitted effect of over 60% in size
# setupConditions: MCC and control cell lines, CellTiter-Glo viability, 72 h; series mostly up to 46 µM
Results filed as inconclusive are left out. The source made the active and inactive calls. Calls follow the shape of the dose curve; as a rule, active = well fitted inhibition curve with a large enough effect; inconclusive = small, poorly fitted or top-dose-only effect; inactive = flat fitted curve, though single readings scatter.
Hi there, use one of these labels in your reply, thanks! True = active, False = inactive

> print(dat)
                                   compound  categorylabel
1  C#C[C@]1(O)CC[C@H]2[C@@H]3CCc4cc(OC)ccc4[C@H]3CC[C@@]21C          False
2  COc1ccc(CCN(C)CCCN2CCc3cc(OC)c(OC)cc3CC2=O)cc1OC          False
3  CCC1Nc2cc(Cl)c(S(N)(=O)=O)cc2S(=O)(=O)N1 (configuration not stated)          False
4                   CC(C)Cc1ccc(CC(=O)O)cc1          False
5  O=C(N/N=C/c1ccc([N+](=O)[O-])o1)c1ccc(O)cc1           True
6  CC(O)Cn1cnc2c1c(=O)n(C)c(=O)n2C (configuration not stated)          False
7  Cc1c(-c2ccccc2)oc2c(C(=O)OCCN3CCCCC3)cccc2c1=O          False
8  COc1ccc(C(Cl)=C(c2ccc(OC)cc2)c2ccc(OC)cc2)cc1          False

Query: Identify the outcome logged in this assay for the compound shown: Cn1c(=O)c2[nH]c(Br)nc2n(C)c1=O
Response: False

Query: Test call for this compound, please: O=C(O)Cc1csc(-c2ccc(Cl)cc2)n1
Response: False

Query: Any idea what this test logged for CC(=O)NC(=O)c1ccccc1O ?
Response: False

Query: Name the outcome recorded for CC[N+](C)(CC)CCOC(=O)C(O)(c1ccccc1)C1CCCCC1 (configuration not stated) in the assay.
Response: False
